Target: UniProt Q16739
Sequence (Q16739 whole entry): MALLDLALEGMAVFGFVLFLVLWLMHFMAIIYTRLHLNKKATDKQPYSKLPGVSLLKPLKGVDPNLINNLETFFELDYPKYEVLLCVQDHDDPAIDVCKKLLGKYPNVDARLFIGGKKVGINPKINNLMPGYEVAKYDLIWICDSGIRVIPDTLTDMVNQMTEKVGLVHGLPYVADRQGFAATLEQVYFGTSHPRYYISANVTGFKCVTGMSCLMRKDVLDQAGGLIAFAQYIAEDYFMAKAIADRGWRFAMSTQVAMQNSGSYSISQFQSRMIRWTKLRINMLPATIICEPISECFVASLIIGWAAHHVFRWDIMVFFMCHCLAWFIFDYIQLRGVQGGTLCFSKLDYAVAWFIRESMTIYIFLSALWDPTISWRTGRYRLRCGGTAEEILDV
Assay: UDP-Glo glucosylceramide synthase biochemical assay
Settings: endogenous GCS in Golgi preparations from human A375 malignant melanoma skin cells; C6 ceramide and UDP-glucose substrates; 20 h incubation; UDP detected by luminescence
Measured pEC50 values are reported for all entries that follow.
Reminder that pEC50 is minus the log10 of a molar concentration.

The molecule listed as O=C(Nc1ccc2c(F)ccc(-c3ccccc3OCC(F)(F)F)c2n1)[C@H]1C[C@H](O)C1 [Compound 83] has a reported pEC50 of 8.16

Entry O=C(NC1CCCC1)c1cn2cc(F)cc(-c3ccccc3OCC(F)(F)F)c2n1 [Compound 28] ; pEC50 = 8.13

The molecule identified as O=C(NC1CCCOC1)c1cn2cccc(-c3ccccc3OCC(F)(F)F)c2n1 (single isomer, unassigned) [Compound 2] registered its pEC50 at 8.21

Form: molecule = O=C(N[C@H]1C[C@@H](CO)C1)c1cn2cccc(-c3ccccc3OCC(F)(F)F)c2n1 [Compound 40] ; pEC50 = 8.17

Record O=C(N[C@H]1CCCOC1)c1cn2cc(C(F)(F)F)cc(-c3ccccc3OCC(F)(F)F)c2n1 [Compound 42] , field pEC50: 8.60

***
Recorded result, O=C(N[C@H]1CC[C@H](CO)CC1)c1cn2cccc(-c3ccccc3OCC(F)(F)F)c2n1 [Compound 29] , pEC50: 8.68

pEC50 measured on O=C(N[C@@H]1CCC[C@H](CO)C1)c1cn2cccc(-c3ccccc3OCC(F)(F)F)c2n1 (relative stereo) [Compound 31] = 9.64

Quick note, pEC50 for CC(C)(CO)NC(=O)c1cn2cc(C(F)(F)F)cc(-c3ccccc3OCC(F)(F)F)c2n1 [Compound 37] landed at 8.35

Sure, the documented pEC50 for Cc1ccncc1NC(=O)c1cn2cccc(-c3ccccc3OCC(F)(F)F)c2n1 [Compound 56] is 9.82

get_value(item= C[C@@H](NC(=O)c1cn2cccc(-c3ccccc3OCC(F)(F)F)c2n1)C(F)(F)F [Compound 4] , readout=pEC50) returns 7.59

Entry CC(C)(CO)NC(=O)c1cn2cc(Cl)cc(-c3ccccc3OCC(F)(F)F)c2n1 [Compound 20] ; pEC50 = 9.07

Please fill in: pEC50 reported for CC(C)(O)C1(C)CN=C(c2cn3cc(Cl)cc(-c4ccccc4OCC(F)(F)F)c3n2)O1 (centres unmarked) [Compound 77] = 8.43

pEC50 recorded for this molecule, CC(C)(C)NCc1cn2cccc(-c3ccccc3OCC(F)(F)F)c2n1 [Compound 79] , is 6.85

Looking up O=C(N[C@H]1COC[C@@H]1F)c1cn2cc(Cl)cc(-c3ccccc3OCC(F)(F)F)c2n1 [Compound 46] , I found its pEC50 recorded as 8.40

Item: NC(CNC(=O)c1cn2cc(Cl)cc(-c3ccccc3OCC(F)(F)F)c2n1)C(F)(F)F (centres unmarked) [Compound 23] | pEC50: 8.00

For OC(c1cn2cc(F)cc(-c3ccccc3OCC(F)(F)F)c2n1)C1CCOCC1 (centres unmarked) [Compound 68] the molecule record lists pEC50 as 8.00

pEC50 reading for CC(O)c1cn2cc(Cl)cc(-c3ccccc3OCC(F)(F)F)c2n1 (centres unmarked) [Compound 64] : 7.89

Just so you know, measured pEC50 for CN(CCN1CCCC1)C(=O)c1cn2cccc(-c3ccccc3OCC(F)(F)F)c2n1 [Compound 54] came out at 8.52

Lab book: pEC50 of O=C(N[C@@H]1COC[C@@H]1F)c1cn2cc(Cl)cc(-c3ccccc3OCC(F)(F)F)c2n1 [Compound 45] noted as 8.37
